Target: LasR (Pseudomonas aeruginosa, UniProt P25084)
Construct: expressed in transfected cells; host or cells: E. coli DH5-alpha (pJN105L + pSC11 PlasI-lacZ)
Sequence (P25084 whole entry): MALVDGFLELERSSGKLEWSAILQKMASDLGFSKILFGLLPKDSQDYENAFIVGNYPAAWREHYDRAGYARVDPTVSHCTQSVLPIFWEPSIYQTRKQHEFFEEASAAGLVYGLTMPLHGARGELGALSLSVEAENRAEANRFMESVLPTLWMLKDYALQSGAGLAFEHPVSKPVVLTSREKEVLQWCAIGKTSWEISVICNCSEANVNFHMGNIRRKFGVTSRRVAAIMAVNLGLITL
Experiment: E. coli DH5-alpha LasR agonist/antagonist assay (PlasI-lacZ, beta-galactosidase)
Format: cell-based, P. aeruginosa
Conditions: antagonism of LasR activation by 50 nM 3-oxo-C12-HSL; E. coli reporter; read-out: IC50, E. coli-based LasR antagonist studies
metric.name: pIC50
Answers are plain numbers, as −log10 of the molar value.

### Prompt Dear colleague, I am looking for the recorded pIC50 of the following compound: `O=C(CCCCCCCCCNC(=O)CCl)CC(=O)N[C@H]1CCOC1=O`
### Response 5.96

Cited source: patent US9242951B2
